Give GI50 for every item shown.
System: U-251
Experiment Notes: NCI tumour cell line growth inhibition, 48 h
Activity calls are given as the source filed them. No stated cut-off is given here; in the data, active = GI50 up to about 1.1 µM and inactive = higher.

Solved entries (count: 5):
>>> measurement("CN1CCN(CN2C(=O)C3C4C=CC(C3C2=O)C2C3C(=O)N(CN5CCN(C)CC5)C(=O)C3C42)CC1 (configuration not stated)")
"20.8 µM (inactive)"
>>> measurement("Cc1ccc(NC(=O)C(=O)Cc2cc[n+]([O-])cc2)cc1")
"> 100 µM (inactive)"
>>> measurement("CCOC(=O)C(C(=O)OCC)c1ccc([N+](=O)[O-])o1")
"18.7 µM (inactive)"
>>> measurement("Cc1ccc2c(CC(=O)O)cc(=O)oc2c1")
"> 100 µM (inactive)"
>>> measurement("c1ncn(C23C4C5C6C4C2C6C53)n1 (configuration not stated)")
"> 100 µM (inactive)"

Kindly give each listed record's GI50.
1. C=C1C(=O)O[C@@H]2[C@H]1C[C@H](I)[C@@]1(C)CC[C@H](O1)[C@](C)(I)CCCC(C)[C@@H]2O (some centres not stated)
2. CCCN(CCCCC(NC(C)=O)C(=O)NCc1ccccc1)C(=O)N(CCCl)N=O (configuration not stated)
3. CCOC(=O)N(C)CCC1CC=CC(=O)C1c1cccc(OC)c1OC (configuration not stated)
4. CCOC(=O)c1cc(-c2ccc(OC)c(OC)c2)cn1C

# output
1: 6.07 µM (inactive); 2: 15.8 µM (inactive); 3: 16.7 µM (inactive); 4: > 10 µM (inactive)

Give me GI50 for each of these compounds, listed below.
1. O=S(=O)(O)c1ccc2c(/N=N/c3ccccc3Cl)c(O)ccc2c1
2. COC(=O)C1=C(C)NC(=S)NC1c1ccc(N(CCCl)CCCl)cc1Cl (configuration not stated)
3. COc1ccc(N/N=C2\CCOc3ccc(C)cc3C2=O)cc1

# output
["> 100 µM (inactive)", "53.6 µM (inactive)", "20.9 µM (inactive)"]

----------
Could you please report measured GI50 for the items listed next?
Tested on: A498
Experiment Notes: NCI tumour cell line growth inhibition, 48 h
Active and inactive are the calls of the source. No stated cut-off is given here; in the data, active = GI50 up to about 1.1 µM and inactive = higher.

>>> measurement("CN1CCC(O)C(CNC23CC4CC(CC(C4)C2)C3)C1 (configuration not stated)")
"> 100 µM (inactive)"
>>> measurement("CCOC(=O)N(C)CCC1CC=CC(=O)C1c1cccc(OC)c1OC (configuration not stated)")
"33.3 µM (inactive)"
>>> measurement("COc1cc(OC2OC(CO)C(O)C(O)C2O)c2c(c1)O[C@@H]1[C@H](O)Oc3cc(OC)c(OC)cc3[C@]1(O)C2=O (some centres not stated)")
"> 25 µM (inactive)"
>>> measurement("CCOC(=O)c1cc(-c2ccc(OC)c(OC)c2)cn1C")
"> 10 µM (inactive)"
>>> measurement("Cc1ccc2c(c1-c1ccccc1)C(=O)OC2")
"> 100 µM (inactive)"

Please give GI50, item by item, for the list that follows.
1. CC(Oc1ccc(Cl)cc1Cl)C(=O)NN1C(=O)CC(=O)N(c2ccccc2)C1=S (configuration not stated)
2. CCCCCCCCCCCCC(=O)NCC(=O)NC(Cc1ccccc1)C(=O)Oc1ccc([N+](=O)[O-])cc1 (configuration not stated)
3. O=C(Nc1cccc(F)c1)c1cc2ccc(O)cc2o/c1=N\c1cccc(F)c1
4. Oc1cc(O)c2ccc(-c3ccc(O)c(O)c3)[o+]c2c1
5. O=C(O)CN(c1ccccc1)S(=O)(=O)c1ccccc1[N+](=O)[O-]
6. Nc1ncn(C/C=C/c2ccccc2)c2ncnc1-2
7. Cc1n[nH]c(=O)n1N=C(c1ccccc1)c1ccccc1

# output
1. 26.9 µM (inactive)
2. > 100 µM (inactive)
3. 33 µM (inactive)
4. > 100 µM (inactive)
5. > 100 µM (inactive)
6. 75.3 µM (inactive)
7. > 100 µM (inactive)

----------
Test system: SNB-75
Experiment Notes: NCI tumour cell line growth inhibition, 48 h
Activity calls are given as the source filed them. No stated cut-off is given here; in the data, active = GI50 up to about 1.1 µM and inactive = higher.
Property Name: GI50

>>> measurement("CCCN(CCCCC(NC(C)=O)C(=O)NCc1ccccc1)C(=O)N(CCCl)N=O (stereo unspecified)")
"27.1 µM (inactive)"
>>> measurement("N#Cc1nc(C#N)n(C(=O)c2ccccc2)c1NC(=O)c1ccccc1")
"> 100 µM (inactive)"
>>> measurement("c1ncn(C23C4C5C6C4C2C6C53)n1 (stereo unspecified)")
"> 100 µM (inactive)"

Below are some compounds; for each one, tell me its GI50.
1. N#Cc1ccc([N+](=O)[O-])cc1NC(N)=S
2. C/C(=C\CNc1nc(Cl)nc2[nH]cnc12)CO
3. COc1cc(OC)c2c(=O)c3c([N+](=O)[O-])cccc3n(C)c2c1
4. O=C1CCCC1NC(=O)C(F)(F)F (stereo unspecified)
5. COc1ccc(-n2nnc(C(N)=O)c2O)cc1

# output
["> 100 µM (inactive)", "96.4 µM (inactive)", "> 100 µM (inactive)", "> 100 µM (inactive)", "> 100 µM (inactive)"]

Parameter requested: GI50. Apply to each item below.
1. O=S(=O)(c1ccccc1)n1c2ccc(Br)cc2c2nc3ccccc3nc21
2. CC(=O)OCCn1cnc2c(NCC=C(C)C)ncnc21
3. COc1cccc(/C=C2\CCC(CCN(C)C)(C3=CCCC3)C2=O)c1 (stereo unspecified)
4. O/N=C/c1ncccc1C1OCCO1
5. CC(=O)OC(C)(C)[C@H]1O[C@]23O[C@]1(C)C[C@@H](C)[C@@H]2[C@@]1(C)CC[C@@]24C[C@@]25CC[C@H](O[C@@H]2OC[C@@H](O)[C@H](O)[C@H]2O)C(C)(C)[C@@H]5CC[C@H]4[C@]1(C)[C@H]3O

# output
1: > 100 µM (inactive); 2: > 100 µM (inactive); 3: 15.9 µM (inactive); 4: > 100 µM (inactive); 5: 17.1 µM (inactive)

Dear colleague, could you send me GI50 for each of the items below? Thanks.
1. CC1(C)OCC=CCO1
2. c1ccc(-c2csc3c2-n2cccc2C3N2CCCC2)cc1 (stereo unspecified)
3. O=c1c2cc([N+](=O)[O-])ccc2nc2n1CCCCC2

# output
1. > 100 µM (inactive)
2. 14.9 µM (inactive)
3. 57.1 µM (inactive)

----------
Can you tell me GI50 for the items I'm about to list?
System: SNB-19
Experiment Notes: NCI tumour cell line growth inhibition, 48 h
The source made the active and inactive calls. Rule as the data show it: active = GI50 up to about 1.1 µM and inactive = higher.

>>> measurement("C=C(CBr)CCCOCc1ccccc1")
"15.6 µM (inactive)"

Record GI50 per entry; entries follow.
1. NCc1ccc(-c2ccc(-c3ccc(-c4ccc(CN)s4)s3)s2)s1
2. COC(=O)CCC(=O)CC(=O)C1=NS(=O)(=O)c2nc(S(N)(=O)=O)c(Cl)cc2N1
3. N#CCN1CCOCCOCCN(CC#N)CCOCCOCC1
4. O=C1NCCCC12CCCNC2=O

# output
["> 100 µM (inactive)", "> 100 µM (inactive)", "> 100 µM (inactive)", "> 100 µM (inactive)"]

Can you give me GI50 for all of these, one by one?
1. CC1(C)CC(=O)c2[nH]c3ccccc3c2CC(=O)NCCc2cn1cn2
2. CCOCN1COCN(C)C1=O
3. Cc1ccc(S(=O)(=O)NN=C2C(C)(C)CC2(C)C)cc1

# output
1: 28 µM (inactive); 2: > 100 µM (inactive); 3: > 100 µM (inactive)

----------
System: EKVX
Experiment Notes: NCI tumour cell line growth inhibition, 48 h
Activity calls are given as the source filed them. No stated cut-off is given here; in the data, active = GI50 up to about 1.1 µM and inactive = higher.
Property Name: GI50

Please review the entries below; each comes with its answer.
>>> measurement("C#CC1/C(=C\\C(=O)OC)CCCC1O (centres undefined)")
"> 100 µM (inactive)"
>>> measurement("O=C1CC[C@@]2(O)[C@H]3Cc4ccc(-c5cccc(O)c5)c5c4[C@@]2(CCN3CC2CC2)[C@H]1O5")
"11.6 µM (inactive)"

List the reported GI50 of each compound below.
1. CCN(CC)c1ccc2c(c1)Oc1ccc(N(CC)CC)cc1C21Oc2ccccc2-c2c1c1ccccc1n2CC (centres undefined)
2. CCOC(=O)C1(N)CCc2[nH][nH]c(=O)c2C1 (centres undefined)
3. Cc1ccc(N2CCC3(CC2)OCCO3)cc1
4. Cc1ccc(/C=C/C(=O)c2cc(CN(C)C)c(O)c(CN(C)C)c2)cc1
5. COc1ccc(C2C(Cl)C(=O)N2n2cnc3ccccc3c2=O)cc1OC (centres undefined)
6. CC(C)(C)c1cc(Cc2ccc(S(C)(=O)=O)cc2)c(O)c(C(C)(C)C)c1
7. O=C(O[C@H]1CCN2C[C@H]3C[C@H](CN4C(=O)CCC[C@H]34)[C@@H]2C1)c1ccc(O)cc1

# output
1: 6.47 µM (inactive); 2: > 100 µM (inactive); 3: > 100 µM (inactive); 4: 25.7 µM (inactive); 5: > 100 µM (inactive); 6: 15.1 µM (inactive); 7: > 100 µM (inactive)
